Test system: host DNA and RNA polymerases
Assay: Reduction of cellular DNA (rDNA) or RNA (rRNA) levels in Huh7 replicon cells
Type: cell-based
Conditions: Homo sapiens, Huh-7
parameter: pIC50
Schema: pIC50 number; meaning minus log10 of the concentration expressed in molar units.

Hi! What's the reported pIC50 for Nc1ccn([C@@H]2O[C@H](CO)[C@@H](O)C2(F)F)c(=O)n1 [Gemcitabine, β-D-2′,2′-difluorocytidine] on host DNA and RNA polymerases?
6.62
